As shown below, each of these binders has a reported Kd value.
Biological target: T1, GFP-9S library array, motif 4 ND N98L;D124S (synthetic construct, N98L;D124S)
T1 chain: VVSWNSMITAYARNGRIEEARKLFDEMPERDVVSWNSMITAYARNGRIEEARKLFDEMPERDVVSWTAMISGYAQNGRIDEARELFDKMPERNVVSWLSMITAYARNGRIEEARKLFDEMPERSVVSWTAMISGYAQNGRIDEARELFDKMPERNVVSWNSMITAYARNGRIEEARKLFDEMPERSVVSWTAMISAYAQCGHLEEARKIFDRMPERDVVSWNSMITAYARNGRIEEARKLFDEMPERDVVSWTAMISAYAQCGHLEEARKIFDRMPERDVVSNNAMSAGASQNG
Experiment: high-throughput RNA pulldown from lysate on Ni-NTA beads; HRP: 50 mM Tris pH 8, 150 mM NaCl, 1 mM beta-mercaptoethanol, 50 ug/ml BSA, 3 ug/ml yeast RNA, 0.5% heparin; ITC and FP: Tris pH 8, 200 mM KCl, 5% glycerol; MST: 50 mM Tris pH 8, 200 mM NaCl, 1 mM DTT, BSA, heparin, 0.05% Tween 20
Settings: tags: N-terminal His-eGFP; label: 5' IRDye 800CW
A number alone suffices; assume nM.

AUUAUACGUGA (ssRNA) [IR-rpoA-U] :: 37.2

Query: Kd; subject: AUUAAACGUGA (ssRNA) [IR-rpoA-A]
Reply: 120

Every entry's value here was drawn from paper PMC8809517.
